molecular target: Glycogen synthase kinase-3 beta (Homo sapiens); test: concentration-response blocking of human GSK3B – biochemical, luminescence, cell-free homogeneous, retest, dose response (AID 434954)
Sequence (P49841 whole entry): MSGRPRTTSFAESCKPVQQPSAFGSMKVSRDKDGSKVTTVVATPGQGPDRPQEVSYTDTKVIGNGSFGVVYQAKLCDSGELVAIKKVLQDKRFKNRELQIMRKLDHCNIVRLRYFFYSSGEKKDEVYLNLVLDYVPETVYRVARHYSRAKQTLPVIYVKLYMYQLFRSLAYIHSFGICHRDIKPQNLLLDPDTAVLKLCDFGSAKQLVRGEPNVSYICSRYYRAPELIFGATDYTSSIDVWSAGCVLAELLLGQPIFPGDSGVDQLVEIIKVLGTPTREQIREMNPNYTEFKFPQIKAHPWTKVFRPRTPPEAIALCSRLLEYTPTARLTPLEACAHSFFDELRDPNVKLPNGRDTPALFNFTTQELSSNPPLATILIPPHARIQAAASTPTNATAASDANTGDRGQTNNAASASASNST
Rule: measured EC50 below 20 µM gets 1 (yes); anything equal to or greater than 20 µM gets 0 (no).

compound	label_value
N#CCCn1cc(CN=O)c(-c2cccc([N+](=O)[O-])c2)n1	0 (no)
C=C1C(c2ccc(OC)cc2)=[N+](O)C(C)=C(C)N1[O-]	0 (no)
CCOC(=O)C1=C(C)NC(=O)C1=CNc1ccccc1	0 (no)
Cc1ccc2c(C)c(C(=O)Nc3nnc(C)s3)oc2c1	0 (no)
CCCn1nc(NC(=O)c2cccs2)c2cc3ccc(C)cc3nc21	0 (no)
Cc1ccc(-c2n[nH]c(=S)n2N=Cc2ccncc2)cc1	1 (yes)
Clc1cccc(Nc2nc(-c3ccncc3)nc3ccccc23)c1	0 (no)
CCCCCCN1C(=O)NC(=O)C(=CNCCCn2ccnc2)C1=O	1 (yes)
Oc1cc(SC(=Nc2ccccc2)Nc2ccccc2)c(O)n1-c1cccc2ccccc12	0 (no)
Cc1ncsc1CCSc1nc2ccccc2c(=O)n1C	1 (yes)
COc1cccc(C2c3c([nH]n(-c4ccccc4)c3=O)N=C3CCCC(=O)C32)c1 (stereo unspecified)	0 (no)

###

Item-by-item account of pEC50
target: Glycogen synthase kinase-3 beta (Homo sapiens); test: concentration-response blocking of human GSK3B – biochemical, luminescence, cell-free homogeneous, retest, dose response (AID 434954)
pEC50: −log10 of the molar value.
test_readout: pEC50

compound	test_readout	recorded_value
NS(=O)(=O)c1ccc(-c2ccc(/C=C3\NC(=S)NC3=O)o2)cc1	pEC50	4.33
c1cc(CSc2nnc(-c3ccc4c(c3)OCO4)o2)ccn1	pEC50	5.77
CCC(C)Nc1nc(N)c([N+](=O)[O-])c(NC2CCCCC2)n1 (stereo unspecified)	pEC50	5.62
Cc1ccc(NC(=S)NC2CC3CCC(C2)N3Cc2ccco2)c(C)c1 (stereo unspecified)	pEC50	< 3.52
c1ccc(CCNCC2COc3ccccc3O2)cc1 (stereo unspecified)	pEC50	< 3.52
CC(C)c1ccc(NS(=O)(=O)c2ccc(Cl)nc2)cc1	pEC50	< 3.52
O=C1c2ccccc2NC(c2c[nH]nc2-c2ccccc2)N1O (stereo unspecified)	pEC50	< 3.52
CC(=O)c1sc(NC(=O)CCNC(=O)c2ccco2)nc1-c1ccccc1	pEC50	5.52
O=C(O)c1ccc(N=NCc2ccc(-c3cccc(Cl)c3)o2)cc1	pEC50	< 3.52
O=C1CCCC2=Nc3nc(SCc4ccccc4)nn3C(c3cccs3)C12 (stereo unspecified)	pEC50	< 3.52
CC(=O)Nc1nnc(CSCc2ccc(F)cc2)s1	pEC50	< 3.52
c1ccc(-c2nc(NCCCn3ccnc3)c3ccccc3n2)cc1	pEC50	4.47
N#CC1=C2SCN(Cc3ccccc3)CN2C(=O)CC1c1cccs1 (stereo unspecified)	pEC50	5.10
Cc1cccc(Nc2nc(N3CCN(C)CC3)nc(N)c2[N+](=O)[O-])c1	pEC50	< 3.52
CC(=NNC(=O)c1nnn(-c2nonc2N)c1CN1CCc2ccccc21)c1ccccc1O	pEC50	< 3.52
CCOc1ccccc1NC(=O)CSc1nnc(C2CC2)n1CC	pEC50	< 3.52
O=C(Nc1ccncc1)c1ccccc1-c1ccccc1	pEC50	4.84
O=C(O)COc1ccc(C(=O)c2ccccc2)cc1	pEC50	< 3.52
Cc1c(Br)c([N+](=O)[O-])nn1CCCC(=O)N1CCN(c2ccccc2)CC1	pEC50	< 3.52
COc1cccc(NC(=O)CN(C)C(=O)c2cc(-c3ccc(F)cc3)nc3ccccc23)c1	pEC50	< 3.52
CCOc1cc(C2c3c(n[nH]c3C)N=C3CC(C)(C)CC(=O)C32)ccc1O (stereo unspecified)	pEC50	5.48

Reference source for all entries: BindingDB's records for doi:10.7270/Q2TX3CTT
